- TEST TARGET: T1, Activin A (UniProt P08476 311-426)
- T1 sequence (looked up): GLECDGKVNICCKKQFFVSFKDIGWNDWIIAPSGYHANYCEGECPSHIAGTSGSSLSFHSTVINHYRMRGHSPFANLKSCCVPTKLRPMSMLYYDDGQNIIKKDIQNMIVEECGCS
- EXPERIMENT SUMMARY: cell-based or functional assay
READOUT NAME: IC50 (ng/mL), A-204 reporter gene assay, conditioned media
Give the value in ng/mL but do not write ng/mL after it.

ActRIIb-hFc (R64, 20-131) (Fc fusion) GRGEAETRECIYYNANWELERTNQSGLERCEGEQDKRLHCYASWRNSSGTIELVKKGCWLDDFNCYDRQECVATEENPQVYFCCCEGNFCNERFTHLPEAGGPEVTYEPPPTGGGTHTCPPCPAPELLGGPSVFLFPPKPKDTLMISRTPEVTCVVVDVSHEDPEVKFNWYVDGVEVHNAKTKPREEQYNSTYRVVSVLTVLHQDWLNGKEYKCKVSNKALPVPIEKTISKAKGQPREPQVYTLPPSREEMTKNQVSLTCLVKGFYPSDIAVEWESNGQPENNYKTTPPVLDSDGSFFLYSKLTVDKSRWQQGNVFSCSVMHEALHNHYTQKSLSLSPGK    201
ActRIIb-hFc (R64, 24-131) (Fc fusion) AETRECIYYNANWELERTNQSGLERCEGEQDKRLHCYASWRNSSGTIELVKKGCWLDDFNCYDRQECVATEENPQVYFCCCEGNFCNERFTHLPEAGGPEVTYEPPPTGGGTHTCPPCPAPELLGGPSVFLFPPKPKDTLMISRTPEVTCVVVDVSHEDPEVKFNWYVDGVEVHNAKTKPREEQYNSTYRVVSVLTVLHQDWLNGKEYKCKVSNKALPVPIEKTISKAKGQPREPQVYTLPPSREEMTKNQVSLTCLVKGFYPSDIAVEWESNGQPENNYKTTPPVLDSDGSFFLYSKLTVDKSRWQQGNVFSCSVMHEALHNHYTQKSLSLSPGK    105
ActRIIb-hFc (R64, 23-131) (Fc fusion) EAETRECIYYNANWELERTNQSGLERCEGEQDKRLHCYASWRNSSGTIELVKKGCWLDDFNCYDRQECVATEENPQVYFCCCEGNFCNERFTHLPEAGGPEVTYEPPPTGGGTHTCPPCPAPELLGGPSVFLFPPKPKDTLMISRTPEVTCVVVDVSHEDPEVKFNWYVDGVEVHNAKTKPREEQYNSTYRVVSVLTVLHQDWLNGKEYKCKVSNKALPVPIEKTISKAKGQPREPQVYTLPPSREEMTKNQVSLTCLVKGFYPSDIAVEWESNGQPENNYKTTPPVLDSDGSFFLYSKLTVDKSRWQQGNVFSCSVMHEALHNHYTQKSLSLSPGK    43
ActRIIb-hFc (R64, 22-131) (Fc fusion) GEAETRECIYYNANWELERTNQSGLERCEGEQDKRLHCYASWRNSSGTIELVKKGCWLDDFNCYDRQECVATEENPQVYFCCCEGNFCNERFTHLPEAGGPEVTYEPPPTGGGTHTCPPCPAPELLGGPSVFLFPPKPKDTLMISRTPEVTCVVVDVSHEDPEVKFNWYVDGVEVHNAKTKPREEQYNSTYRVVSVLTVLHQDWLNGKEYKCKVSNKALPVPIEKTISKAKGQPREPQVYTLPPSREEMTKNQVSLTCLVKGFYPSDIAVEWESNGQPENNYKTTPPVLDSDGSFFLYSKLTVDKSRWQQGNVFSCSVMHEALHNHYTQKSLSLSPGK    100

Please turn your attention to the following entry.
Request: Any idea what its IC50 (ng/mL), A-204 reporter gene assay, conditioned media is? The binder is ActRIIb-hFc (R64, 21-131) (Fc fusion) RGEAETRECIYYNANWELERTNQSGLERCEGEQDKRLHCYASWRNSSGTIELVKKGCWLDDFNCYDRQECVATEENPQVYFCCCEGNFCNERFTHLPEAGGPEVTYEPPPTGGGTHTCPPCPAPELLGGPSVFLFPPKPKDTLMISRTPEVTCVVVDVSHEDPEVKFNWYVDGVEVHNAKTKPREEQYNSTYRVVSVLTVLHQDWLNGKEYKCKVSNKALPVPIEKTISKAKGQPREPQVYTLPPSREEMTKNQVSLTCLVKGFYPSDIAVEWESNGQPENNYKTTPPVLDSDGSFFLYSKLTVDKSRWQQGNVFSCSVMHEALHNHYTQKSLSLSPGK
Response: 325
